tested on: rat VR1 (Rattus norvegicus, UniProt O35433)
Construct: expressed in transfected cells
Sequence (O35433 whole entry): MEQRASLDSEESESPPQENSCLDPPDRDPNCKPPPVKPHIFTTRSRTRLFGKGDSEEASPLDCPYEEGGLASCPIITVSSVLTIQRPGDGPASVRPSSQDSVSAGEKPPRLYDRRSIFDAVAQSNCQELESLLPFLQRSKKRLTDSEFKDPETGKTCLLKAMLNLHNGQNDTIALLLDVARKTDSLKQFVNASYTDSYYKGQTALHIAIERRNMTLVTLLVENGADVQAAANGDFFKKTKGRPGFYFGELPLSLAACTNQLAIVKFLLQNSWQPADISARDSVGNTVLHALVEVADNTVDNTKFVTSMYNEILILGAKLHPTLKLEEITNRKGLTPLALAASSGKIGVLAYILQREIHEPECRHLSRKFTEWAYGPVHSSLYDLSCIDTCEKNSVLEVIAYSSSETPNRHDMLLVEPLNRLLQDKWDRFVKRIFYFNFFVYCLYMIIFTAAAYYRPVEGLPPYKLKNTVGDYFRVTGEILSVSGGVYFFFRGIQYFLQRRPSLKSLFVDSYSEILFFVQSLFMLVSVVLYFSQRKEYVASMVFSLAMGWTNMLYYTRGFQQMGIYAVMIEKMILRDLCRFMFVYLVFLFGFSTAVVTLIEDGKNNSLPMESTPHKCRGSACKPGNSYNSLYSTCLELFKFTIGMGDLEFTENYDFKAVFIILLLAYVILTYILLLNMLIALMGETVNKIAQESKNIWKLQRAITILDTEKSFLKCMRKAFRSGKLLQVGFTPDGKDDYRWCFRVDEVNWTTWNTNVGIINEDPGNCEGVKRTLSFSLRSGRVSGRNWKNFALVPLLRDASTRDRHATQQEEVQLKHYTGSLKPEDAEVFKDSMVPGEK
method: [3H]resiniferatoxin (RTX) competition binding assay, VR1-transfected CHO cells
experimental conditions: competition with [3H]RTX, rat VR1 in CHO cells; read-out: Ki (nM) Binding Affinity
For each entry below, report its log10(Ki) value.
Friendly reminder: values = log10 of Ki, unit nM.

Which measured log10(Ki) value corresponds to CC(C(=O)NCc1ccc(C(C)(C)C)cc1)c1ccc(NS(C)(=O)=O)c(Cl)c1 (centres unmarked) [1-52] ?
1.49

Give its log10(Ki) value. Item: Cc1ccc(CC(CNC(=O)C(C)c2ccc(NS(C)(=O)=O)c(F)c2)COC(=O)C(C)(C)C)cc1C (centres unmarked) [5-3]
1.52

Recorded log10(Ki) of CC(C(=O)NCc1ccc(C(C)(C)C)cc1)c1ccc(NS(C)(=O)=O)cc1 (centres unmarked) [2-7] , please.
2.02

Suppose we examine the compound CC(C(=O)NCc1ccc(C(C)(C)C)cc1)c1cc(F)c(NS(C)(=O)=O)c(F)c1 (centres unmarked) [1-55] ; what log10(Ki) value has been reported?
1.30

Item under review: COc1cc(C(C)(C)C(=O)NCC(COC(=O)C(C)(C)C)Cc2ccc(C)c(C)c2)ccc1NS(C)(=O)=O (centres unmarked) [9-3] . Reported log10(Ki)?
2.18

What measured log10(Ki) goes with CC(C(=O)NCc1ccc(C(C)(C)C)cc1)c1ccc(NS(C)(=O)=O)c(I)c1 (centres unmarked) [1-54] ?
1.37

What does the data say about its log10(Ki)? Entry: Oc1cc2c(cc1O)CN(C(=S)NCCc1ccc(Cl)cc1)CCC2 [capsazepine, reference compound]
3.11

Could you tell me which log10(Ki) is on file for CC(C)(C)c1ccc(CNC(=O)C(C)(C)c2ccc(NS(C)(=O)=O)c(F)c2)cc1 [9-8] ?
3.03

// log10(Ki) lookup, key: CC(C(=O)NCc1ccc(Cl)cc1)c1ccc(NS(C)(=O)=O)c(F)c1 (centres unmarked) [4-1]
3.03

So what does the record say about log10(Ki) for CC(C)C(NC(=S)NCc1ccc(C(C)(C)C)cc1)c1ccc(NS(C)(=O)=O)c(F)c1 (centres unmarked) [20-13] ?
2.53

Item under review: C[C@@H](C(=O)NC[C@H](COC(=O)C(C)(C)C)Cc1ccccc1)c1ccc(NS(C)(=O)=O)c(F)c1 [6-8] . Reported log10(Ki)?
2.47

What does the data say about its log10(Ki)? Entry: CC(C(=O)NCc1ccc(C(C)(C)C)cc1)c1ccc(NS(C)(=O)=O)c(C#N)c1 (centres unmarked) [1-56]
2.54

Field request: log10(Ki) | item: COC(=O)c1cc(C(C)C(=O)NCc2ccc(C(C)(C)C)cc2)ccc1NS(C)(=O)=O (centres unmarked) [1-59]
3.21

Which log10(Ki) value belongs to C[C@@H](C(=O)NC[C@H](COC(=O)C(C)(C)C)Cc1ccc(C(C)(C)C)cc1)c1ccc(NS(C)(=O)=O)c(F)c1 [6-12] ?
1.72

###

tested on: rat VR1 (Rattus norvegicus, UniProt O35433)
Construct: expressed in transfected cells
method: 45Ca2+-uptake assay in CHO/VR1 cells, antagonism of capsaicin-stimulated uptake
Format: cell-based
experimental conditions: 45Ca2+ uptake stimulated by 50 nM capsaicin
Field: Ki. Provide a value for each of the molecules that follow.
The answer is to be given in nM; state only the numeric part.

Sample C[C@H](C(=O)N[C@@H](COC(=O)C(C)(C)C)Cc1ccccc1)c1ccc(NS(C)(=O)=O)c(F)c1 [6-1] — what was its Ki?
1470

// query Ki value for entry CC(C(=O)NCC=C1c2ccccc2CCc2ccccc21)c1ccc(NS(C)(=O)=O)c(F)c1 (stereo not shown) [4-28]
121

Query: Ki; subject: C[C@@H](NC(=S)NC[C@H](COC(=O)C(C)(C)C)Cc1ccc(C(C)(C)C)cc1)c1ccc(NS(C)(=O)=O)cc1 [18-11]
53

Given the entry C[C@@H](NC(=S)NCc1ccc(C(C)(C)C)cc1)c1ccc(NS(C)(=O)=O)c(F)c1 [17-7] , report its measured Ki.
39.4

###

tested on: rat VR1 (Rattus norvegicus)
Construct: expressed in transfected cells
method: 45Ca2+-uptake assay in CHO/VR1 cells, antagonism of capsaicin-stimulated uptake
Format: cell-based
experimental conditions: 45Ca2+ uptake stimulated by 50 nM capsaicin
Experimental: Initial stocks were dissolved in DMSO. For the binding assays, compounds were diluted in with DPBS with Ca^2+ and Mg^2+ and 0.25 mg/mL bovine serum albumin. […] Molecules were characterized to determine whether they were full agonists, partial agonists, or antagonists. […] Plates were shaken slowly for 20 min; then 306 μL of cell lysate was transferred from each well into a scintillation vial and radioactivity was determined by scintillation counting. […]
Ki vs 30 nM: less than gives Fulfilled; not less than gives Not fulfilled.

Below 30 nM on Ki? Entry Cc1ccc(C(C)CC(=O)NC(C)c2ccc(NS(C)(=O)=O)c(F)c2)cc1C (centres unmarked)
Not fulfilled

Bench note: check whether "CC(C)(C)c1ccc(CNC(=S)NC(C)(C)c2ccc(NS(C)(=O)=O)cc2)cc1" shows Ki below 30 nM
Not fulfilled

Dear colleague, could you confirm whether Ki of Cc1ccc(C(=CCNC(=O)C(C)c2ccc(NS(C)(=O)=O)c(F)c2)c2ccc(C)cc2)cc1 (centres unmarked) falls below 30 nM? Thanks.
Fulfilled

Record "C[C@@H](C(=O)NC[C@@H](COC(=O)C(C)(C)C)Cc1ccc(C(C)(C)C)cc1)c1ccc(NS(C)(=O)=O)c(F)c1" : is its Ki strictly below 30 nM?
Not fulfilled

is_below(Ki, 30 nM) for "C[C@H](C(=O)NC[C@@H](COC(=O)C(C)(C)C)Cc1ccc(C(C)(C)C)cc1)c1ccc(NS(C)(=O)=O)c(F)c1" ?
Fulfilled

Strictly below 30 nM in Ki? "Cc1ccc(CCCNC(=O)C(C)(C)c2ccc(NS(C)(=O)=O)cc2)cc1C"
Not fulfilled

###

property label: melting point

Can you share its melting point? I mean this molecule: "COc1cc(C(C)(C)C(=O)NCCCc2ccc(C)c(C)c2)ccc1NS(C)(=O)=O"
93 to 95 °C

State the recorded melting point for this entry: CC(C(=O)NCc1ccc(C(C)(C)C)cc1)c1ccc(NS(C)(=O)=O)c(Br)c1 (centres unmarked)
66 to 67 °C

Bench note: what melting point did CC(C(=O)NCc1ccc(C(C)(C)C)cc1)c1ccc(NS(C)(=O)=O)c(Cl)c1 (centres unmarked) show?
126 to 129 °C

Look at this molecule and give its reported melting point. "Cc1ccc(CCCNC(=O)C2(c3ccc(NS(C)(=O)=O)cc3)CC2)cc1C"
127 to 128 °C

Using the record for Cc1ccc(CNC(=O)C(C)c2ccc(NS(C)(=O)=O)c(F)c2)cc1 (centres unmarked) , report its melting point.
166 °C

Can you look up the measured melting point of COc1cc(C2(C(=O)NCC(COC(=O)C(C)(C)C)Cc3ccc(C)c(C)c3)CC2)ccc1NS(C)(=O)=O (centres unmarked) for me?
66 to 68 °C

For CC(C(=O)NCc1ccc(C(C)(C)C)cc1)c1ccc(NS(C)(=O)=O)c(N2CCN(C(=O)OC(C)(C)C)CC2)c1 (centres unmarked) , what is its reported melting point?
103 °C

State the recorded melting point for this entry: "CC(C)(C)c1ccc(CNC(=S)NC(C)(C)c2ccc(NS(C)(=O)=O)c(F)c2)cc1"
83 to 85 °C

###

tested on: rat VR1 (Rattus norvegicus, UniProt O35433)
Construct: expressed in transfected cells
method: [3H]resiniferatoxin (RTX) competition binding assay, VR1-transfected CHO cells
property label: pKi
Note on units: pKi is unitless, being -log10 of a concentration expressed in mol/L.

I'd like to know its pKi. The molecule in question is CC(C(=O)NCc1ccc(Cl)c(Cl)c1)c1ccc(NS(C)(=O)=O)cc1 (centres unmarked) [2-9]
5.78

Request the reported pKi associated with CC(C(=O)NCc1ccc(Cl)cc1)c1ccc(NS(C)(=O)=O)c(Cl)c1 (centres unmarked) [4-2]
6.14

Entry CC(NC(=O)C=Cc1ccc(Cl)cc1)c1ccc(NS(C)(=O)=O)c(F)c1 (centres unmarked) [24-7] : reported pKi = ?
6.11

May I ask what pKi has been recorded for Cc1ccc(CC(CNC(=S)NC(C)c2ccc(NS(C)(=O)=O)cc2)COC(=O)C(C)(C)C)cc1C (centres unmarked) [18-5] ?
7.43

Quick one: pKi of C[C@@H](NC(=S)NCc1ccc(C(C)(C)C)cc1)c1ccc(NS(C)(=O)=O)c(F)c1 [17-7] ?
7.48

###

property label: melting point

If you can, please state the reported melting point value of "CC(C)(C)c1ccc(CNC(=S)NC(C)(C)c2ccc(NS(C)(=O)=O)cc2)cc1" .
161 to 164 °C

Could you tell me which melting point is on file for CC(C(=O)NCc1ccc(C(C)(C)C)cc1)c1ccc(NS(C)(=O)=O)c(F)c1 (stereo not shown) ?
52 to 54 °C

Given the compound CC(C(=O)NCC=Cc1ccc(Cl)cc1)c1ccc(NS(C)(=O)=O)c(F)c1 (stereo not shown) , what is its reported melting point?
151 to 153 °C

Consider the compound shown here: Cc1ccc(CC(CNC(=O)C(C)c2ccc(NS(C)(=O)=O)cc2)COC(=O)C(C)(C)C)cc1C (stereo not shown) What is its recorded melting point?
112 to 115 °C

// lookup melting point for CC(NC(=O)NCc1ccc(C(C)(C)C)cc1)c1ccc(NS(C)(=O)=O)cc1 (stereo not shown)
95 to 98 °C

Return reported melting point; argument: CC(NC(=S)NCC(COC(=O)C(C)(C)C)Cc1ccc(C(C)(C)C)cc1)c1ccc(NS(C)(=O)=O)cc1 (stereo not shown)
87 °C

Find the recorded melting point belonging to CC(C(=O)NCc1ccc(C(C)(C)C)cc1)c1ccc(NS(C)(=O)=O)c(C(=O)NCc2ccccc2)c1 (stereo not shown) and report it.
79 to 81 °C

Query (compound): CC(C)(C)c1ccc(CNC(=S)NC(c2ccccc2)c2ccc(NS(C)(=O)=O)c(F)c2)cc1 (stereo not shown) ; field requested: melting point
191 °C

Give its melting point value. Item: CC(C(=O)NCc1ccc(C(C)(C)C)cc1)c1ccc(NS(C)(=O)=O)c(C(=O)OC(C)(C)C)c1 (stereo not shown)
75 to 77 °C

Reported melting point, compound "C[C@H](C(=O)N[C@@H](COC(=O)C(C)(C)C)Cc1ccccc1)c1ccc(NS(C)(=O)=O)c(F)c1" : ____
115 °C

Report melting point for Cc1ccc(CCC(=O)NC(C)c2ccc(NS(C)(=O)=O)c(F)c2)cc1C (stereo not shown) please.
176 to 177 °C

Sample Cc1ccc(CC(CNC(=O)C2(c3ccc(NS(C)(=O)=O)c(F)c3)CC2)COC(=O)C(C)(C)C)cc1C (stereo not shown) — what was its melting point?
55 to 56 °C

Bench note: what melting point did "CC(C)(C)c1ccc(CNC(=O)C2(c3ccc(NS(C)(=O)=O)cc3)CC2)cc1" show?
200 to 203 °C

Requested read-out: melting point. Entry: Cc1ccc(CC(CNC(=O)C(C)c2ccc(NS(C)(=O)=O)c(Cl)c2)COC(=O)C(C)(C)C)cc1C (stereo not shown)
127 to 129 °C

Entry under review: "Cc1ccc(CCCNC(=O)C(C)(C)c2ccc(NS(C)(=O)=O)c(F)c2)cc1C" . Reported melting point?
145 to 146 °C

I am curious: what melting point value has been reported for CC(C(=O)NCc1ccc(Cl)cc1)c1ccc(NS(C)(=O)=O)c(F)c1 (stereo not shown) ?
129 to 130 °C

Fill in the blank: the reported melting point of CC(NC(=O)NCc1ccc(C(C)(C)C)cc1)c1ccc(NS(C)(=O)=O)c(F)c1 (stereo not shown) is ____.
152 to 154 °C

Requested field: melting point. Item: C[C@@H](NC(=S)NCC(COC(=O)C(C)(C)C)Cc1ccc(C(C)(C)C)cc1)c1ccc(NS(C)(=O)=O)cc1 (stereo partly shown)
88 to 90 °C

Looking for the measured melting point of CC(C)(C)c1ccc(CNC(=S)NC(Cc2ccccc2)c2ccc(NS(C)(=O)=O)c(F)c2)cc1 (stereo not shown) , can you help?
116 °C

Would you mind telling me what melting point value was observed for "C[C@@H](NC(=S)NC[C@H](COC(=O)C(C)(C)C)Cc1ccccc1)c1ccc(NS(C)(=O)=O)cc1" ?
62 to 64 °C

Reported melting point, compound CC(C(=O)NCC(c1ccccc1)c1ccccc1)c1ccc(NS(C)(=O)=O)c(F)c1 (stereo not shown) : ____
129 °C

Fill blank: measured melting point of the compound "Cc1ccc(CCCNC(=O)C2(c3ccc(NS(C)(=O)=O)c(F)c3)CC2)cc1C" is ____.
127 to 128 °C

Requested field: melting point. Item: CC(C(=O)NCc1ccc(C(C)(C)C)cc1)c1ccc(NS(C)(=O)=O)c(C#N)c1 (stereo not shown)
102 to 105 °C

// melting point lookup, key: COc1cc(C(C)NC(=S)NCc2ccc(C(C)(C)C)cc2)ccc1NS(C)(=O)=O (stereo not shown)
80 to 82 °C

So what's the measured melting point for this one? CC(C(=O)NCc1ccc(Cl)c(Cl)c1)c1ccc(NS(C)(=O)=O)cc1 (stereo not shown)
130 °C

Fill in: melting point of "CC(C)(C)c1ccc(CNC(=O)C(C)(C)c2ccc(NS(C)(=O)=O)c(F)c2)cc1" is ___
48 to 51 °C

Give its melting point value. Item: CC(C(=O)NCc1ccc(Cl)cc1)c1ccc(NS(C)(=O)=O)c(Cl)c1 (stereo not shown)
134 to 135 °C

Need melting point, item CC(C(=O)NCc1ccc(C(C)(C)C)cc1)c1ccc(NS(C)(=O)=O)c(N2CCOCC2)c1 (stereo not shown)
78 °C
